These entries and their values trace back to patent US20070027162A1.

Test: Solubility determination in a variety of solvents
Format: physicochemical
Settings: solvent Water, 50° C.; read-out: Solubility at 50° C.
assay_endpoint: solubility

Form field solubility, entry "C[C@H](CN(C(=O)c1ccc(C#N)cc1)c1ccccn1)N1CCN(c2cccc3c2OCCO3)CC1.Cl" : > 100 mg/mL

* * *

Assay: Solubility determination in a variety of solvents
Type: physicochemical
Details: organic solvent or mixture; solvent THF, 23° C.; read-out: Solubility at 23° C.
assay_endpoint: solubility (µg/mL)
Kindly provide the numeric value in µg/mL only, without the unit symbol.

Form field solubility, entry "C[C@H](CN(C(=O)c1ccc(C#N)cc1)c1ccccn1)N1CCN(c2cccc3c2OCCO3)CC1.Cl" : 4000
